target: BTK kinase (Homo sapiens, UniProt Q06187)
Sequence (Q06187 whole entry): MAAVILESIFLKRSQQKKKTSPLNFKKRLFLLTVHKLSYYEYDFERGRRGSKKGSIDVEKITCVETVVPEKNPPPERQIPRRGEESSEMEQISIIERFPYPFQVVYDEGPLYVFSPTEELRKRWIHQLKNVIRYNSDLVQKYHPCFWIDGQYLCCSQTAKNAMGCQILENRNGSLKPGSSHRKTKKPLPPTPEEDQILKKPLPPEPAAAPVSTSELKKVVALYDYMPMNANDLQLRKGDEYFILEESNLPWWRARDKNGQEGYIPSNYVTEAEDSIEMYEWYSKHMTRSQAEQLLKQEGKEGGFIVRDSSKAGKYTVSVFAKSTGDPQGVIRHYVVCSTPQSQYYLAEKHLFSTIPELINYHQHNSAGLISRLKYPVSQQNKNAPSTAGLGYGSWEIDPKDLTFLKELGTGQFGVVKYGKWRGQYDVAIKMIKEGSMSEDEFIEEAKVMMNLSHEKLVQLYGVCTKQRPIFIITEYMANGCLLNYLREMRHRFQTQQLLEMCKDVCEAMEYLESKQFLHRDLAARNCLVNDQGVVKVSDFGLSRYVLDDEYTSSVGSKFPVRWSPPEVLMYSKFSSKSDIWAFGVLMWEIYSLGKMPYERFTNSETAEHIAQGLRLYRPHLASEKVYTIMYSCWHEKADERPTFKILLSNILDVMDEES
Catalogue of compounds with associated IC50

Example cases with answers are listed next.
INSERT INTO results (compound, measurement_type, measured_result) VALUES
  ('C=CC(=O)N1CCC[C@@H](Nc2nc(Nc3cnn(C4CCC4)c3)nc3ccsc23)C1 [Example 129]', 'IC50', '≤ 50 nM'),
  ('C=CC(=O)N1CCC[C@@H](Nc2nc(Nc3cc(C)no3)nc3ccsc23)C1 [Example 85]', 'IC50', '50 to 100 nM');

Qu. Report IC50 for C=CC(=O)N[C@H]1CC[C@@H](Nc2nc(Nc3cnn(C4CCC4)c3)nc3ccsc23)CC1 [Example 12] tested on BTK kinase (Homo sapiens, UniProt Q06187).
Ans. ≤ 50 nM

Qu. Report IC50 for C=CC(=O)N[C@H]1CC[C@@H](Nc2nc(Nc3ccc(N4CCN(C)CC4)c(C)c3)nc3ccsc23)CC1 [Example 36] tested on BTK kinase (Homo sapiens, UniProt Q06187).
Ans. 50 to 100 nM

Qu. Report IC50 for C=CC(=O)N1CCC[C@@H](Nc2nc(Nc3cc(C)ns3)nc3sccc23)C1 [Example 104] tested on BTK kinase (Homo sapiens, UniProt Q06187).
Ans. ≤ 50 nM

Qu. Report IC50 for C=CC(=O)N1CC[C@@H](Nc2nc(Nc3cnn(C)c3)nc3ccoc23)C1 [Example 93] tested on BTK kinase (Homo sapiens, UniProt Q06187).
Ans. ≤ 50 nM

Qu. Report IC50 for C=CC(=O)N1CC[C@@H](Nc2nc(Nc3cnn(C4CCC4)c3)nc3ccsc23)C1 [Example 120] tested on BTK kinase (Homo sapiens, UniProt Q06187).
Ans. ≤ 50 nM

Qu. Report IC50 for C=CC(=O)N1CC[C@@H](N(C)c2nc(Nc3cnn(C)c3)nc3ccsc23)C1 [Example 105] tested on BTK kinase (Homo sapiens, UniProt Q06187).
Ans. ≤ 50 nM

Qu. Report IC50 for C=CC(=O)N[C@H]1CC[C@@H](Nc2nc(Nc3ccc(OCCN4CCCCC4)c(F)c3)nc3ccsc23)CC1 [Example 30] tested on BTK kinase (Homo sapiens, UniProt Q06187).
Ans. 50 to 100 nM

Qu. Report IC50 for C=CC(=O)N1CCC[C@@H](Nc2nc(Nc3cnn(C)c3)nc3sccc23)C1 [Example 103] tested on BTK kinase (Homo sapiens, UniProt Q06187).
Ans. ≤ 50 nM

Qu. Report IC50 for C=CC(=O)N1CC(CNc2nc(Nc3cnn(CCOC)c3)nc3ccsc23)C1 [Example 115] tested on BTK kinase (Homo sapiens, UniProt Q06187).
Ans. ≤ 50 nM

Qu. Report IC50 for C=CC(=O)N1CC(CNc2nc(Nc3cnn(COC)c3)nc3ccsc23)C1 [Example 114] tested on BTK kinase (Homo sapiens, UniProt Q06187).
Ans. ≤ 50 nM

Qu. Report IC50 for C=CC(=O)N1CC(CNc2nc(Nc3cnn(C(C)C)c3)nc3ccsc23)C1 [Example 108] tested on BTK kinase (Homo sapiens, UniProt Q06187).
Ans. ≤ 50 nM

Qu. Report IC50 for C=CC(=O)N1CC[C@@H](Nc2nc(Nc3cccs3)nc3ccsc23)C1 [Example 76] tested on BTK kinase (Homo sapiens, UniProt Q06187).
Ans. ≤ 50 nM

Qu. Report IC50 for C=CC(=O)N1CC[C@@H](Nc2nc(Nc3cn[nH]c3)nc3ccsc23)C1 [Example 77] tested on BTK kinase (Homo sapiens, UniProt Q06187).
Ans. ≤ 50 nM

Qu. Report IC50 for C=CC(=O)N1CC[C@@H](Nc2nc(Nc3cnn(CCOC)c3)nc3ccsc23)C1 [Example 122] tested on BTK kinase (Homo sapiens, UniProt Q06187).
Ans. ≤ 50 nM

Qu. Report IC50 for C=CC(=O)N[C@H]1CC[C@@H](Nc2nc(Nc3ccc(N4CCOCC4)cc3)nc3ccsc23)CC1 [Example 33] tested on BTK kinase (Homo sapiens, UniProt Q06187).
Ans. 50 to 100 nM

Qu. Report IC50 for C=CC(=O)N[C@H]1CC[C@@H](Nc2nc(Nc3ccc(C(=O)N4CCN(C)CC4)c(F)c3)nc3ccsc23)CC1 [Example 51] tested on BTK kinase (Homo sapiens, UniProt Q06187).
Ans. ≤ 50 nM

Qu. Report IC50 for C=CC(=O)N[C@H]1CC[C@@H](Nc2nc(Nc3cnn(CCN(C)C)c3)nc3ccsc23)CC1 [Example 17] tested on BTK kinase (Homo sapiens, UniProt Q06187).
Ans. 50 to 100 nM

Qu. Report IC50 for C#CC(=O)N[C@H]1CC[C@@H](Nc2nc(Nc3cnn(C)c3)nc3ccsc23)CC1 [Example 60] tested on BTK kinase (Homo sapiens, UniProt Q06187).
Ans. ≤ 50 nM

Qu. Report IC50 for C=CC(=O)N1CC(CNc2nc(Nc3cnn(C4CCCC4)c3)nc3ccsc23)C1 [Example 112] tested on BTK kinase (Homo sapiens, UniProt Q06187).
Ans. ≤ 50 nM

Qu. Report IC50 for C=CC(=O)N1CC[C@@H](Nc2nc(Nc3cnoc3)nc3ccsc23)C1 [Example 78] tested on BTK kinase (Homo sapiens, UniProt Q06187).
Ans. 50 to 100 nM
